test system: blood glucose concentration; assay: Determination of glucose in the blood after a single oral administration (fasting, metabolically healthy rats); format: in vivo, rat (young male Sprague-Dawley); conditions: Rattus norvegicus, rats p.o., single dose, fasting, observed for 6 hours, with reference to control group, read-out: ED50 (15%): dose which effects a lowering of the blood glucose concentration by at least 15% in 50% of the animals
test.readout: ED50 (mg/kg)

molecule	experimental.system	unit.tag	qualifier	value
CCOC(=O)C1(CCCCCCOc2ccc(Cl)cc2)CO1 (stereo not drawn)	blood glucose concentration	mg/kg	<	7
[H]/N=C(/N)N/C(=N/[H])NCCc1ccccc1 [Serial No. 2, Phenformin, reference compound]	blood glucose concentration	mg/kg	>	150
CCOC(=O)C1(CCCCOc2ccc(C)cc2)CO1 (stereo not drawn)	blood glucose concentration	mg/kg	=	8
CCOC(=O)C1(CCCCCOc2ccc(Cl)cc2)CO1 (stereo not drawn)	blood glucose concentration	mg/kg	=	5
CCOC(=O)C1(CCCCOc2cccc(Cl)c2)CO1 (stereo not drawn)	blood glucose concentration	mg/kg	=	3
